Data origin: paper PMC5540273

Attribute: %Inh
System: SYK
Settings: concentration: 1 μM, replicates: in singlicate; n = 1;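 further: KINOMEscan kinase panel screen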
# answer = value followed by unit

Consider the reported %Inh for these compounds:
# COMPOUND, TARGET_SYSTEM, QUANTITY_NAME, RESULT
rows = [
    ("O=C(NCCCN1CCOCC1)c1cccc(Nc2nccc(Nc3ccc(Oc4ccccc4)cc3)n2)c1 [GW663929]", "SYK", "%Inh", "0%"),
    ("COc1ccc(Nc2nccc(N3CCC(NC(=O)Nc4cc(C)ccc4C)C3)n2)cc1 (stereo not shown) [GSK1379741]", "SYK", "%Inh", "0%"),
]

[in] What value of measured %Inh is listed for Fc1ccc(-c2nn3c(OCC(F)(F)F)cccc3c2-c2ccncc2)cc1 [GW514784] ?
[out] 1%

[in] What value of measured %Inh is listed for c1ccc(-c2cc(-c3c[nH]nc3-c3ccccn3)ccn2)cc1 [GW576604] ?
[out] 6%

[in] What value of measured %Inh is listed for CC(=O)Nc1ccc(COc2ccc(Nc3ccnc4cc(-c5ccccn5)ccc34)cc2)cc1.Cl [GW440148] ?
[out] 0%

[in] What value of measured %Inh is listed for Cc1nnc(-c2ccc(C)c(-c3ccc(C(=O)Nc4ccc(NS(C)(=O)=O)cc4)cc3)c2)o1 [GW702865] ?
[out] 33%

[in] What value of measured %Inh is listed for CN1c2ccc(NCc3ccc(F)cc3)cc2-c2c(cnn2C)S1(=O)=O ?
[out] 8%

----------
Test system: IKK-alpha
Construct: gene CHUK
Details: concentration: 1 μM, replicates: in singlicate; n = 1
QUANTITY_NAME: %Inh (%)
Hi! Could you send only the number? It should be in %, unit omitted.

Consider the reported %Inh for these compounds:
# COMPOUND, TARGET_SYSTEM, QUANTITY_NAME, UNIT_ABBREV, RECORDED_NUMBER
rows = [
    ("COc1ccc(COc2cc(-n3cnc4ccccc43)sc2C(N)=O)cc1 [GSK1024304]", "IKK-alpha", "%Inh", "%", 0),
    ("Cc1cccc(-c2nc(Nc3ccc4ncsc4c3)c3ccccc3n2)n1 [GW867588]", "IKK-alpha", "%Inh", "%", 15),
    ("COc1ccc(S(=O)(=O)NC2CCN(c3cc(C)nc(Nc4cccc(C#N)c4)n3)CC2)cc1.O=C(O)C(F)(F)F [GSK1653539]", "IKK-alpha", "%Inh", "%", 0),
    ("O=c1cc(N2CCOCC2)nc2n(Cc3cccc4ccccc34)ccn12 [GSK2333389]", "IKK-alpha", "%Inh", "%", 29),
    ("Nc1nc(-c2ccc3c(N)n[nH]c3c2)cc(N2CCCC2)n1 [GSK2227430]", "IKK-alpha", "%Inh", "%", 0),
    ("O=C1Cc2cc(Nc3nc(NCc4cccc(S(=O)(=O)C(F)(F)F)c4)ncc3C(F)(F)F)ccc2N1", "IKK-alpha", "%Inh", "%", 20),
    ("CCc1nc(-c2cccc(C)c2)c(-c2ccnc(NCc3ccccc3)c2)s1", "IKK-alpha", "%Inh", "%", 15),
    ("Cn1ccc2ncnc(Oc3ccc(NC(=O)Nc4ccncc4)c(Cl)c3)c21", "IKK-alpha", "%Inh", "%", 14),
]

[in] What value of measured %Inh is listed for O=C(NCCNc1ccnc(Nc2ccc(F)cc2)n1)Nc1ccccc1F [GSK1379880] ?
[out] 0

[in] What value of measured %Inh is listed for CC(C)(C)n1cnc2c(N)ncnc21 [SKF-97359] ?
[out] 0

----------
Test system: CAMK2G
Conditions: concentration: 1 μM, replicates: in singlicate; n = 1
QUANTITY_NAME: %Inh (%)
Hi! Could you send only the number? It should be in %, unit omitted.

Consider the reported %Inh for these molecules:
# MOLECULE, UNIT_ABBREV, %Inh
measured = [
    ("Cn1ccc2ncnc(Oc3ccc(NC(=O)Nc4ccncc4)c(Cl)c3)c21", "%", 0),
    ("NCC(NC(=O)c1cc(-c2cn[nH]c2)c(-c2ccnc3[nH]ccc23)s1)c1ccccc1.O=C(O)C(F)(F)F.O=C(O)C(F)(F)F (stereo not drawn) [GSK1325775]", "%", 30),
]

Turning to the following molecule.
[in] I'm curious: which %Inh was measured for O=c1cc(N2CCOCC2)nc2n(Cc3cccc(C(F)(F)F)c3)ccn12 [GSK2297543] tested on CAMK2G?
[out] 4

----------
Attribute: %Inh
System: SIK
Settings: concentration: 1 μM, replicates: in singlicate; n = 1
Hi! Could you send only the number? It should be in %, unit omitted.

# COMPOUND, %Inh (%)
measured = [
    ("CN(C(=O)c1ccc(-c2cc(-c3c[nH]nc3-c3ccccn3)ccn2)cc1)C1CCOCC1 [GW810083]", 0),
    ("CCc1ccnc(/C=C/c2n[nH]c3cc(Sc4ccccc4C(=O)NC)ccc23)c1", 0),
    ("CSc1ccc(-c2cc3ncnc(SCC(=O)O)c3s2)cc1", 25),
    ("Fc1ccc(-c2ncn(CCCN3CCOCC3)c2-c2cccnc2)cc1 [SB-211743]", 0),
    ("Cn1cc(-c2ccc3c(c2)CCN3C(=O)Cc2ccccc2Cl)c2c(N)ncnc21 [GSK2608885]", 96.4),
]

[in] What value of measured %Inh is listed for Nc1nc(-c2ccc3c(N)n[nH]c3c2)cc(N2CCCC2)n1 [GSK2227430] ?
[out] 0

[in] What value of measured %Inh is listed for O=C(NCCNc1ccnc(Nc2ccc(F)cc2)n1)c1cc2ccccc2s1 [GSK1379874] ?
[out] 0

[in] What value of measured %Inh is listed for CN1c2ccc(CNc3ccc(F)cc3)cc2-c2c(cnn2C)S1(=O)=O ?
[out] 0

[in] What value of measured %Inh is listed for CC(=O)Nc1ccc(COc2ccc(Nc3ccnc4cc(-c5ccccn5)ccc34)cc2)cc1.Cl [GW440148] ?
[out] 4

[in] What value of measured %Inh is listed for O=C(Nc1cccc(-c2nn3ncccc3c2-c2ccnc(Nc3cccc(C(F)(F)F)c3)n2)c1)c1c(F)cccc1F [GSK299495] ?
[out] 0

[in] What value of measured %Inh is listed for Fc1ccc(-c2nn3c(OCC(F)(F)F)cccc3c2-c2ccncc2)cc1 [GW514784] ?
[out] 0

----------
Attribute: %Inh
System: CSNK1A1L
Settings: concentration: 1 μM, replicates: in singlicate; n = 1
Hi! Could you send only the number? It should be in %, unit omitted.

Consider the reported %Inh for these compounds:
# COMPOUND, %Inh / %
measured = [
    ("CCc1nc(-c2cccc(C)c2)c(-c2ccnc(NCc3ccccc3)c2)s1", 11),
    ("O=C1NC(=O)C(N2CCc3ccccc32)=C1c1cccc(Cl)c1 [SB-408010]", 0),
    ("CN1c2ccc(NCc3ccc(F)cc3)cc2-c2c(cnn2C)S1(=O)=O", 0),
    ("CN(C(=O)c1ccc(-c2cc(-c3c[nH]nc3-c3ccccn3)ccn2)cc1)C1CCOCC1 [GW810083]", 8),
]

[in] I'm curious: which %Inh was measured for N#Cc1ccc(-c2cc(-c3c[nH]nc3-c3ccccn3)ccn2)cc1 [GW693028] tested on CSNK1A1L?
[out] 12

----------
System: TAOK3
Details: concentration: 1 μM, replicates: in singlicate; n = 1
Attribute: %Inh
Hi! Could you send only the number? It should be in %, unit omitted.

Consider the reported %Inh for these compounds:
# ITEM_SMILES, UNIT_ABBREV, RECORDED_NUMBER
records = [
    ("Cc1ccc(C(=O)NCC(N)=O)cc1-n1c(C)cc(OCc2ccc(F)cc2F)c(Br)c1=O", "%", 0),
    ("COc1cc2ncn(-c3cc(OCc4sccc4Cl)c(C(N)=O)s3)c2cc1OC", "%", 0),
]

[in] I'm curious: which %Inh was measured for Nc1nccc(-c2c(-c3ccc(F)cc3)ncn2C2CCN(CC(F)(F)F)CC2)n1 tested on TAOK3?
[out] 0

----------
Attribute: %Inh
Tested on: PIK4CB
Construct: gene PI4KB
Details: concentration: 1 μM, replicates: in singlicate; n = 1
Hi! Could you send only the number? It should be in %, unit omitted.

Consider the reported %Inh for these molecules:
# MOLECULE, RECORDED_NUMBER
rows = [
    ("O=C(NCCCN1CCOCC1)c1cccc(Nc2nccc(Nc3ccc(Oc4ccccc4)cc3)n2)c1", 21),
    ("NCC(NC(=O)c1cc(-c2cn[nH]c2)c(-c2ccnc3[nH]ccc23)s1)c1ccccc1.O=C(O)C(F)(F)F.O=C(O)C(F)(F)F (stereo not shown)", 26),
    ("Cc1ccc(NC(=O)c2ccnc(N3CCN(C)CC3)c2)cc1-c1ccc(C(=O)NCC2CC2)cc1", 0),
]

Turning to the following molecule.
[in] What value of measured %Inh is listed for COc1cc2c(cc1OCCN1CCN(C)CC1)ncc1c3ccc(C#N)cc3[nH]c21 ?
[out] 0
